# key: entry, value: pIC50
- target-desc: PARG (389-976) (Homo sapiens (Human), UniProt Q86W56)
- Sequence (Q86W56 389-976): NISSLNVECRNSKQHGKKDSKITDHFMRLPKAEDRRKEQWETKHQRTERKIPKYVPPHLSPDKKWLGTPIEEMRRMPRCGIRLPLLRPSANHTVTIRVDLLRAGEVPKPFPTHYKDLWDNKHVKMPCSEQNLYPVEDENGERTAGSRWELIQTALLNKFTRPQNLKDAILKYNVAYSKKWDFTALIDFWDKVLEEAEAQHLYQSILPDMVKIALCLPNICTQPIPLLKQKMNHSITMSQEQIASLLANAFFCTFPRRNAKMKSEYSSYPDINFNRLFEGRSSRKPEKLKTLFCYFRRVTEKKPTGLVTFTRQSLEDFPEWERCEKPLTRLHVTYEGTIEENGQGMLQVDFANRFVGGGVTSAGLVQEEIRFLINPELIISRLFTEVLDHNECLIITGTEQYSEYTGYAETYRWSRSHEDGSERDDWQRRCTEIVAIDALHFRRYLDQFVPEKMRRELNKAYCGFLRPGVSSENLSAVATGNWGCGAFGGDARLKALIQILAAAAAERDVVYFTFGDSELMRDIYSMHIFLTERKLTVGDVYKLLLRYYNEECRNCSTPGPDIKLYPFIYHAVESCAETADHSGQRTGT
- assay-overview: PARG enzyme inhibition assay (TR-FRET)
- Format: biochemical
- stated-conditions: class symbol; Bio PARylated His-TEV-PARP1 substrate, TR-FRET
pIC50: −log10 of the molar value.
quantity-measured: pIC50

>>> result("CC(C)S(=O)(=O)N1CC=C(c2cc(S(=O)(=O)NC3(C#N)CC3)cc3c2nnn3-c2nnc(C(F)(F)F)s2)CC1")
"7.00 to 8.00"
>>> result("CC(C)S(=O)(=O)N1CCC(O)(c2cc(S(=O)(=O)NC3(C#N)CC3)cc3c(-c4nnc(C(F)F)s4)n[nH]c23)CC1")
"8.00 to 9.00"
>>> result("Cn1nc(-c2nnc(C(F)(F)F)s2)c2cc(S(=O)(=O)NC3(C#N)CC3)cc(C3=CCN(S(=O)(=O)c4cccnc4)CC3)c21")
"8.00 to 9.00"
>>> result("CC(C)S(=O)(=O)N1CC=C(c2cc(S(=O)(=O)NC3(C#N)CC3)cc3c(-c4nnc(C(F)(F)F)s4)nn(Cc4ccccc4)c23)CC1")
"7.00 to 8.00"
>>> result("CC(C)S(=O)(=O)N1CCC(c2cc(S(=O)(=O)NC3(C#N)CC3)cc3c(-c4nnc(C(F)(F)F)s4)nn(C)c23)=C(C#N)C1")
"> 9.00"
>>> result("CC(C)S(=O)(=O)N1CC=C(c2cc(S(=O)(=O)NC3(C#N)CC3)cc3c(-c4nnc(C(F)F)s4)nn(CC(N)=O)c23)CC1")
"8.00 to 9.00"
